Tested on: Escherichia coli
Test Protocol: Antibacterial activity against penicillin-susceptible Escherichia coli ATCC 25922 after 24 hrs by broth microdilution method
Type: functional
Experimental Context: ATCC 25922, 24 h
Measured Parameter: MIC

COc1cc(-c2ccc(-c3ccccc3)cc2)cc2c3ccccc3c[n+](C)c12.[Cl-] ... > 64 µg/mL
COc1cc(-c2cccc(C(F)(F)F)c2)cc2c3ccccc3c[n+](C)c12.[Cl-] ... > 64 µg/mL
Cc1ccc(-c2ccc3c(c2)c2ccccc2c[n+]3C)cc1.[Cl-] ... > 64 µg/mL
C[n+]1cc2ccccc2c2cc(-c3ccc(OC(F)(F)F)cc3)ccc21.[Cl-] ... > 64 µg/mL
Cc1cc(-c2ccccc2C(F)(F)F)cc2c3ccccc3c[n+](C)c12.[Cl-] ... > 64 µg/mL

Give MIC for all molecules that follow.
1. C[n+]1cc2c3c(ccc2c2ccc4cc5c(cc4c21)OCO5)OCO3.[Cl-] [SANGUINARIUM CHLORIDE]
2. COc1ccc(-c2ccc3c(c2)c2ccccc2c[n+]3C)cc1.[Cl-]

1: > 64 µg/mL; 2: > 64 µg/mL
